# Tested on: T-47D breast
# experiment-notes: NCI-60 one-dose screen, 48 h (100 = growth as untreated, 0 = no growth, -100 = all killed)
# measurement-conditions: 10 µM
# Protocol: Growth inhibition of the T-47D human tumor cell line is measured as a screen for anti-cancer activity. Cells are grown in 96 well plates and exposed to the test compound for 48 hours. Compounds are tested at a single concentration, which is 10^-5 M for most compounds. The reported endpoint is percent growth (GI% or GIPRCNT), where numbers from 0 - 100% represent growth inhibition, and numbers from -100% - 0 represent cell death. For example, a value of 40 represents 60% growth inhibition. […]
Compounds without any hit were thinned out: in the full panel of roughly 83,000, 20% have a hit.
Quick rule: growth of at least 40% means yes, below that means no.

{"compound": "CCC(C)(c1ccc(O)c(C)c1)c1ccc(O)c(C)c1", "cat": "no"}
{"compound": "COc1cc(N)ccc1Nc1c2ccccc2nc2ccccc12", "cat": "yes"}
{"compound": "N#CC(=C1C=CC(=NO)C=C1)c1ccccc1", "cat": "no"}
{"compound": "O=Nc1ccc(Nc2ccccc2)cc1", "cat": "yes"}
{"compound": "Cn1ncc2cc3c(Nc4ccc(Cl)cc4)cccc3nc21", "cat": "yes"}
{"compound": "CCC(=O)Oc1ccc(/C=N/NC(N)=S)nc1", "cat": "no"}
{"compound": "Cc1cc(O)c2c(c1O)C(=O)C13C(=C2O)C(=O)C2C(O)C1C1C(O)C3C(=O)C3=C(O)c4c(O)cc(C)c(O)c4C(=O)C321 (stereo unspecified)", "cat": "no"}
{"compound": "S=C1SCN(CCc2ccccc2)CN1CCc1ccccc1", "cat": "yes"}
{"compound": "O=C(NC(=S)Nc1ccccn1)c1ccccc1", "cat": "yes"}
{"compound": "O=C(CNS(=O)(=O)Cc1ccccc1)NNc1ccccc1", "cat": "yes"}
{"compound": "O=C1c2ccccc2CCC1(Br)Br", "cat": "no"}

---

# Tested on: TK-10 renal
# experiment-notes: NCI-60 one-dose screen, 48 h
# measurement-conditions: 10 µM
This is part of a sample that, as a whole, favours compounds with a hit. Of some 83,000 tested, about 20% had one in any assay. The source made the active and inactive calls. How the source made its calls: active means growth percent below 10; inactive means the rest.
Classes used: TRUE for active, FALSE for inactive

{"compound": "O=C(CNS(=O)(=O)Cc1ccccc1)NNc1ccccc1", "cat": "FALSE"}
{"compound": "O=S(=O)(c1cc(Cl)ccc1O)c1cc(Cl)ccc1O", "cat": "FALSE"}
{"compound": "O=C(NC(=S)Nc1ccccn1)c1ccccc1", "cat": "FALSE"}
{"compound": "O=C1c2cccc3cc([N+](=O)[O-])cc(c23)C(=O)N1CCN1CCCC1", "cat": "TRUE"}
{"compound": "O=C1c2ccccc2CCC1(Br)Br", "cat": "TRUE"}
{"compound": "Cc1cc(O)c2c(c1O)C(=O)C13C(=C2O)C(=O)C2C(O)C1C1C(O)C3C(=O)C3=C(O)c4c(O)cc(C)c(O)c4C(=O)C321 (centres undefined)", "cat": "FALSE"}
{"compound": "CCC(=O)Oc1ccc(/C=N/NC(N)=S)nc1", "cat": "FALSE"}
{"compound": "N#C/C(=C/N1C(=O)/C(=C/c2ccc([N+](=O)[O-])cc2)SC1=S)c1nc2ccccc2s1", "cat": "FALSE"}
{"compound": "O=C1C(Cl)=C(Cl)C(Cl)(Cl)C(Cl)C1(Cl)Cl (centres undefined)", "cat": "FALSE"}
{"compound": "N#CC(=C1C=CC(=NO)C=C1)c1ccccc1", "cat": "FALSE"}
{"compound": "CN(C)CCNc1cccc2sc3ccc(O)cc3c(=O)c12", "cat": "FALSE"}
{"compound": "COc1ccc(N)c2c1C(=O)c1ccccc1C2=O", "cat": "FALSE"}
{"compound": "O=C1C=CC(=O)N1c1ccc(N2C(=O)C=CC2=O)cc1", "cat": "FALSE"}
{"compound": "O=C(O)c1ccccc1.[Ag]", "cat": "FALSE"}
{"compound": "Cc1cc(Cl)ccc1NC(=O)/C(Cl)=C1/Sc2ccccc2NC1=O", "cat": "FALSE"}
{"compound": "O=c1[nH]cc(/C=N\\Nc2ccccc2)c(=O)[nH]1", "cat": "FALSE"}
{"compound": "CCC(C)(c1ccc(O)c(C)c1)c1ccc(O)c(C)c1", "cat": "FALSE"}
{"compound": "COc1ccc(C(C#N)=C2C=CC(=NO)C=C2)cc1", "cat": "FALSE"}
{"compound": "Cc1cc(C)c(N2C(=O)CC(Sc3ccccc3N)C2=O)c(C)c1 (centres undefined)", "cat": "FALSE"}
